test-name: Pharmacokinetic evaluation in Macaca fascicularis monkeys, intravenous administration
Format: in vivo
setup-conditions: cynomolgus monkey, I.V. 0.2 mg/kg, plasma
parameter: C0 (ng/mL)
Number in ng/mL, nothing else.

INPUT: Any idea what its C0 is? The molecule is "[2H]C([2H])([2H])n1nc2c3c(c(-n4ccn(-c5c6c(nn5-c5cc(C)c(F)c(C)c5)CCN(C(=O)c5cc7cc([C@H]8CCOC(C)(C)C8)ccc7n5[C@@]5(c7noc(=O)[nH]7)C[C@@H]5C)[C@H]6C)c4=O)ccc31)OCCC2"
OUTPUT: 1080

* * *

test-name: Pharmacokinetic evaluation in mice, oral administration
Type: in vivo, Balb/c mice
setup-conditions: mouse, in vivo, po, p.o. 5 mg/kg, plasma, single PK
Procedure: Balb/c mice were used as test animals to study the pharmacokinetic behavior of the compound of the present invention in mice (plasma) at a dose of 5 mg/kg administered orally and 1 mg/kg administered intravenously. Balb/c mice, 3 per group, male. […] 10 ml of PEG400, 10 ml of PG, and 80 ml of (100 mM glycine, 64 Mm NaOH, pH = 9) were measured into a 100 ml volumetric flask, vortexed, mixed homogeneously, and sonicated to obtain a clear solution. […]
// NB: equality with 2000 ng/mL counts as -1; only Cmax strictly below is 1

INPUT: Quick check: does Cc1cc(-n2nc3c(c2-n2ccn(-c4ccc5c(cnn5C5CC5)c4F)c2=O)[C@H](C)N(C(=O)c2cc4cc([C@H]5CCOC(C)(C)C5)ccc4n2[C@@]2(c4noc(=O)[nH]4)C[C@@H]2COC2CC2)CC3)cc(C)c1F [Example 67] have Cmax under 2000 ng/mL?
OUTPUT: 1

INPUT: Quick check: does Cc1cc(-n2nc3c(c2-n2ccn(-c4cc5c6c(c4)CCC(=O)N6CCC5)c2=O)[C@H](C)N(C(=O)c2cc4cc([C@H]5CCOC(C)(C)C5)ccc4n2[C@@]2(c4noc(=O)[nH]4)C[C@@H]2C)CC3)cc(C)c1F [Example 34] have Cmax under 2000 ng/mL?
OUTPUT: 1

INPUT: Quick check: does CC#C[C@H]1C[C@]1(c1noc(=O)[nH]1)n1c(C(=O)N2CCc3nn(-c4cc(C)c(F)c(C)c4)c(-n4ccn(-c5ccc6c(cnn6C6CC6)c5F)c4=O)c3[C@@H]2C)cc2cc([C@H]3CCOC(C)(C)C3)ccc21 [Example 144] have Cmax under 2000 ng/mL?
OUTPUT: -1

INPUT: Quick check: does [2H]C([2H])([2H])n1nc2c3c(c(-n4ccn(-c5c6c(nn5-c5cc(C)c(F)c(C)c5)CCN(C(=O)c5cc7cc([C@H]8CCOC(C)(C)C8)ccc7n5[C@@]5(c7noc(=O)[nH]7)C[C@@H]5C)[C@H]6C)c4=O)ccc31)OCCC2 [Example 282] have Cmax under 2000 ng/mL?
OUTPUT: 1

INPUT: Quick check: does Cc1cc(-n2nc3c(c2-n2ccn(-c4ccc5c(cnn5C5CC5)c4F)c2=O)[C@H](C)N(C(=O)c2cc4cc([C@H]5CCOC(C)(C)C5)ccc4n2[C@@]2(c4noc(=O)[nH]4)[C@@H]4COC[C@@H]42)CC3)cc(C)c1F [Example 65-1] have Cmax under 2000 ng/mL?
OUTPUT: 1

INPUT: Quick check: does [2H]C([2H])([2H])n1nc2c3c(c(-n4ccn(-c5c6c(nn5-c5cc(C)c(F)c(C)c5)CCN(C(=O)c5cc7cc([C@H]8CCOC(C)(C)C8)ccc7n5[C@@]5(c7noc(=O)[nH]7)C[C@@H]5C#C)[C@H]6C)c4=O)ccc31)OCCC2 [Example 287] have Cmax under 2000 ng/mL?
OUTPUT: -1

INPUT: Quick check: does Cc1cc(-n2nc3c(c2-n2ccn(-c4ccc5c6c(nn5C)CCCOc46)c2=O)[C@H](C)N(C(=O)c2cc4cc([C@H]5CCOC(C)(C)C5)ccc4n2[C@@]2(c4noc(=O)[nH]4)C[C@@H]2C)CC3)cc(C)c1F [Example 35] have Cmax under 2000 ng/mL?
OUTPUT: -1

INPUT: Quick check: does Cc1cc(-n2nc3c(c2-n2ccn(-c4ccc5c(cnn5C5CC5)c4F)c2=O)[C@H](C)N(C(=O)c2cc4cc([C@H]5CCOC(C)(C)C5)ccc4n2[C@@]2(c4noc(=O)[nH]4)C[C@@H]2C)CC3)cc(C)c1C#N [Example 49] have Cmax under 2000 ng/mL?
OUTPUT: -1
